Tested on: Staphylococcus aureus
Test: Antibacterial activity against gram positive Staphylococcus aureus(MTCC 96)
Format: functional
Reported MIC is given for each of the following molecules.
Output spec: scalar in µg/mL, unitless text.

Value of MIC reported for the molecule "O=c1cc(-c2ccccc2)oc2cc(OCCCN3CCOCC3)cc(O)c12" is 25

Value of MIC reported for the molecule "CN(C)CCCCOc1cc(O)c2c(=O)cc(-c3ccccc3)oc2c1" is 25

###

Tested on: Klebsiella aerogenes
Test: Antibacterial activity against gram negative Klebsiella aerogenes(MTCC 39)
Assay type: functional
Could you mark each record Fulfilled if its MIC falls strictly under 20 µg/mL, and Not fulfilled if it equals or exceeds it?

These solved cases illustrate the format of a correct answer.
- structure smiles: "CN[C@@H]1[C@H](O[C@H]2[C@H](O[C@H]3[C@H](O)[C@@H](O)[C@H](N=C(N)N)[C@@H](O)[C@@H]3N=C(N)N)O[C@@H](C)[C@]2(O)C=O)O[C@@H](CO)[C@H](O)[C@H]1O"
  assigned label: "Fulfilled"
- structure smiles: "O=c1cc(-c2ccccc2)oc2cc(OCCCN3CCCCC3)cc(O)c12"
  assigned label: "Not fulfilled"
- structure smiles: "CN(C)CCCCCCOc1cc(O)c2c(=O)cc(-c3ccccc3)oc2c1"
  assigned label: "Not fulfilled"
- structure smiles: "O=c1cc(-c2ccccc2)oc2cc(OCCCCCCN3CCOCC3)cc(O)c12"
  assigned label: "Not fulfilled"
- structure smiles: "O=c1cc(-c2ccccc2)oc2cc(O)cc(O)c12"
  assigned label: "Not fulfilled"

Query: Please determine if "CN1CCN(CCCCCCOc2cc(O)c3c(=O)cc(-c4ccccc4)oc3c2)CC1" is below 20 µg/mL in terms of MIC.
Result: Not fulfilled

Query: Please determine if "CN(C)CCCOc1cc(O)c2c(=O)cc(-c3ccccc3)oc2c1" is below 20 µg/mL in terms of MIC.
Result: Not fulfilled

Query: Please determine if "CN1CCN(CCCOc2cc(O)c3c(=O)cc(-c4ccccc4)oc3c2)CC1" is below 20 µg/mL in terms of MIC.
Result: Not fulfilled

Query: Please determine if "CC1(C)S[C@@H]2[C@H](NC(=O)Cc3ccccc3)C(=O)N2[C@H]1C(=O)O" is below 20 µg/mL in terms of MIC.
Result: Fulfilled

Query: Please determine if "O=c1cc(-c2ccccc2)oc2cc(OCCCCN3CCOCC3)cc(O)c12" is below 20 µg/mL in terms of MIC.
Result: Fulfilled

Query: Please determine if "CN(C)CCCCOc1cc(O)c2c(=O)cc(-c3ccccc3)oc2c1" is below 20 µg/mL in terms of MIC.
Result: Not fulfilled

Query: Please determine if "O=c1cc(-c2ccccc2)oc2cc(OCCCN3CCOCC3)cc(O)c12" is below 20 µg/mL in terms of MIC.
Result: Not fulfilled

Query: Please determine if "CN1CCN(CCCCOc2cc(O)c3c(=O)cc(-c4ccccc4)oc3c2)CC1" is below 20 µg/mL in terms of MIC.
Result: Fulfilled

Query: Please determine if "O=c1cc(-c2ccccc2)oc2cc(OCCCCN3CCCCC3)cc(O)c12" is below 20 µg/mL in terms of MIC.
Result: Not fulfilled

Query: Please determine if "O=c1cc(-c2ccccc2)oc2cc(OCCCCCCN3CCCCC3)cc(O)c12" is below 20 µg/mL in terms of MIC.
Result: Not fulfilled
